# concentration in supernatant fluid per entry
Target: L-aspartate-α-decarboxylase (Escherichia coli)
Construct: expressed in transfected cells; host or cells: E. coli W3110 transformed with pIF309 = strain NS3291 (ATCC 98675), whole cells
Assay: Activity towards D/L-glutamate and D/L-alanine, D/L-aspartate as control (Example 8)
Format: biochemical, E. coli K12
Conditions: 55 hr; racemate substrate, pH 7.0
Method: D/L-aspartate was run as a control. Substrates were prepared by dissolving solid amino acid racemate in approximately 75 ml deionized H2 O and adjusting the pH to 7.0 with 10N NaOH. The volume was then brought to 100 ml with deionized H2 O. The cells used were stored frozen for about 1 month and then thawed and stored in a refrigerator for about 1 month prior to running the experiments. The reaction was run the same as described in the prior Examples. […]
Enter your answer as a number in mg/mL; do not include the unit.

Known concentration in supernatant fluid results, listed for orientation:
ITEM_SMILES	TESTED_ON	concentration in supernatant fluid (mg/mL)
N[C@H](CCC(=O)O)C(=O)O	L-aspartate-α-decarboxylase (Escherichia coli)	29.840
N[C@@H](CC(=O)O)C(=O)O	L-aspartate-α-decarboxylase (Escherichia coli)	0.3300
N[C@@H](CCC(=O)O)C(=O)O	L-aspartate-α-decarboxylase (Escherichia coli)	28.000

Record C[C@H](N)C(=O)O / L-aspartate-α-decarboxylase (Escherichia coli), concentration in supernatant fluid recorded as 17.830

Record C[C@@H](N)C(=O)O / L-aspartate-α-decarboxylase (Escherichia coli), concentration in supernatant fluid recorded as 17.580

Record N[C@H](CC(=O)O)C(=O)O / L-aspartate-α-decarboxylase (Escherichia coli), concentration in supernatant fluid recorded as 30.120

Cited source for all entries: patent US5834259A
